Source: PubChem BioAssay (Tox21)

- Test: qHTS assay to identify small molecule antagonists of the estrogen receptor beta (ER-beta) signaling pathway - cell viability counter screen (AID 1259382);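 also: HEK293T cells carrying ER-beta-UAS-bla reporter stimulated with estradiol; nearly all actives have a fitted effect of over 55% in size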
- Measurement setup: ER-beta-UAS-bla HEK293T viability, CellTiter-Glo luminescence, 16 h; series mostly up to 92.4 µM
Inconclusive results are not listed. Active and inactive are the calls of the source. Calls follow the shape of the dose curve; as a rule, active = well fitted cell-killing curve with a large enough effect in the repeat runs; inconclusive = weak or mixed curves; inactive = flat fitted curve, though single readings scatter.
Reported metric: activity change, negative = cytotoxicity

[[record]]
compound = "COC(/C=C(\\C)CCC=C(C)C)OC"
reported_metric = "activity change, negative = cytotoxicity"
experimental_result = "inactive"

[[record]]
compound = "CCOC(=O)OCC/C(SC(=O)OCC)=C(\\C)N(C=O)Cc1cnc(C)nc1N"
reported_metric = "activity change, negative = cytotoxicity"
experimental_result = "inactive"

[[record]]
compound = "CN(C1CCCCC1)S(=O)(=O)c1ccccc1N"
reported_metric = "activity change, negative = cytotoxicity"
experimental_result = "inactive"

[[record]]
compound = "O=CN1CCOCC1"
reported_metric = "activity change, negative = cytotoxicity"
experimental_result = "inactive"

[[record]]
compound = "NS(=O)(=O)c1ccc(Cl)c(S(N)(=O)=O)c1"
reported_metric = "activity change, negative = cytotoxicity"
experimental_result = "inactive"

[[record]]
compound = "CCOC(=O)C(=O)c1csc(NC=O)n1"
reported_metric = "activity change, negative = cytotoxicity"
experimental_result = "inactive"

[[record]]
compound = "CO[Si](CCCCl)(OC)OC"
reported_metric = "activity change, negative = cytotoxicity"
experimental_result = "inactive"

[[record]]
compound = "CCOC(=O)CCc1ccccc1"
reported_metric = "activity change, negative = cytotoxicity"
experimental_result = "inactive"

[[record]]
compound = "c1ccccc1"
reported_metric = "activity change, negative = cytotoxicity"
experimental_result = "inactive"

[[record]]
compound = "CC(=O)Nc1ccc(C)cc1"
reported_metric = "activity change, negative = cytotoxicity"
experimental_result = "inactive"

[[record]]
compound = "NC(=O)NC(=O)Cc1ccccc1"
reported_metric = "activity change, negative = cytotoxicity"
experimental_result = "inactive"

[[record]]
compound = "NS(=O)(=O)c1ccccc1OC(F)(F)F"
reported_metric = "activity change, negative = cytotoxicity"
experimental_result = "inactive"

[[record]]
compound = "CCCCC(C)C(=O)O (configuration not stated)"
reported_metric = "activity change, negative = cytotoxicity"
experimental_result = "inactive"

[[record]]
compound = "CN(C)CCCNCCC#N"
reported_metric = "activity change, negative = cytotoxicity"
experimental_result = "inactive"

[[record]]
compound = "O=C1NC2NC(=O)NC2N1 (configuration not stated)"
reported_metric = "activity change, negative = cytotoxicity"
experimental_result = "inactive"

[[record]]
compound = "CCCCCCCCOC(C)=O"
reported_metric = "activity change, negative = cytotoxicity"
experimental_result = "inactive"

[[record]]
compound = "C=CCOc1cc(Cl)ccc1C(=O)NCCN(CC)CC"
reported_metric = "activity change, negative = cytotoxicity"
experimental_result = "inactive"

[[record]]
compound = "CCCCC/C=C/CC(=O)OC"
reported_metric = "activity change, negative = cytotoxicity"
experimental_result = "inactive"

[[record]]
compound = "CC(C)SCc1ccco1"
reported_metric = "activity change, negative = cytotoxicity"
experimental_result = "inactive"

[[record]]
compound = "CC1(N)CCC(C(C)(C)N)CC1 (configuration not stated)"
reported_metric = "activity change, negative = cytotoxicity"
experimental_result = "inactive"

[[record]]
compound = "CCCO"
reported_metric = "activity change, negative = cytotoxicity"
experimental_result = "inactive"

[[record]]
compound = "Cc1cc(C)cc([N+](=O)[O-])c1"
reported_metric = "activity change, negative = cytotoxicity"
experimental_result = "inactive"

[[record]]
compound = "CCCCCCCCCCCCCC(=O)OC"
reported_metric = "activity change, negative = cytotoxicity"
experimental_result = "inactive"

[[record]]
compound = "CCC(C)(CCC(C)C)C(=O)[O-].CCC(C)(CCC(C)C)C(=O)[O-].[Zn+2] (configuration not stated)"
reported_metric = "activity change, negative = cytotoxicity"
experimental_result = "inactive"

[[record]]
compound = "CCCCCCCCCOCC1CO1 (configuration not stated)"
reported_metric = "activity change, negative = cytotoxicity"
experimental_result = "inactive"

[[record]]
compound = "Nc1cc(C(=O)O)ccc1Cl"
reported_metric = "activity change, negative = cytotoxicity"
experimental_result = "inactive"

[[record]]
compound = "NC(=O)C1(N2CCCCC2)CCN(CCCC(=O)c2ccc(F)cc2)CC1"
reported_metric = "activity change, negative = cytotoxicity"
experimental_result = "inactive"

[[record]]
compound = "O=C(O)CCNC(=O)c1ccccc1"
reported_metric = "activity change, negative = cytotoxicity"
experimental_result = "inactive"

[[record]]
compound = "CCCCC[Si](OCC)(OCC)OCC"
reported_metric = "activity change, negative = cytotoxicity"
experimental_result = "inactive"

[[record]]
compound = "CCCCOC(=O)C(=O)OCCCC"
reported_metric = "activity change, negative = cytotoxicity"
experimental_result = "inactive"

[[record]]
compound = "Cc1cc(O)c2c(c1)C(=O)c1cccc(O)c1C2=O"
reported_metric = "activity change, negative = cytotoxicity"
experimental_result = "inactive"

[[record]]
compound = "Cc1nc([N+](=O)[O-])cn1-c1ccc([N+](=O)[O-])cc1"
reported_metric = "activity change, negative = cytotoxicity"
experimental_result = "inactive"

